# studySystem: human orexin-2 receptor (OX2R) (Homo sapiens, UniProt O43614)
# Construct: expressed in transfected cells; host or cells: CHO cells (G418 selection)
# Sequence (O43614 whole entry): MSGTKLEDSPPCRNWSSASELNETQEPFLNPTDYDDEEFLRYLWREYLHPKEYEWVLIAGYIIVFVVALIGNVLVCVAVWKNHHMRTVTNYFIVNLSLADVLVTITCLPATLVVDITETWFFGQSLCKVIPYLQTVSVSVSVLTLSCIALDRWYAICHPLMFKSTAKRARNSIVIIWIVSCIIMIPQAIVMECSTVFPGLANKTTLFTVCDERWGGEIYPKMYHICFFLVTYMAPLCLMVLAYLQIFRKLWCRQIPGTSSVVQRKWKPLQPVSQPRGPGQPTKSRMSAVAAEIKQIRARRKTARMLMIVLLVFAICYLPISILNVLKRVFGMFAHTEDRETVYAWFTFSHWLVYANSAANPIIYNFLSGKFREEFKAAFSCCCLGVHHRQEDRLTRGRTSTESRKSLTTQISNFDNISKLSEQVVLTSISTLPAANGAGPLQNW
# assayInfo: In vitro orexin antagonism assay: intracellular calcium measurement (FLIPR), orexin-A 3 nM as agonist
# Format: cell-based
# conditionSet: read-out: OX2R, % Inh. @ 1 uM
// reported inhibition at 1 µM for each item listed

compound	inhibition at 1 µM (%)
O=C(c1nn2cccnc2c1-c1ccccn1)N1C(Cn2ccc(-c3ccc(F)cn3)n2)C[C@@H]2C[C@@H]21 (stereo partly shown) [Example 187]	34
O=C(c1nc2n(c1-c1ccccn1)CCOC2)N1CCC[C@H]1Cn1cc(-c2ccccn2)cn1 [Example 217]	57
O=C(c1nn2c(c1-c1ccccc1)COCC2)N1C2CCC1(COc1ccc(C(F)(F)F)cn1)CC2 [Example 159]	15
O=C(c1c(-c2ccccc2)nn2c1COCC2)N1CCC[C@H]1Cc1nc(-c2ccc(F)cn2)no1 [Example 116]	19
O=C(c1nc2n(c1-c1ccccn1)CCOC2)N1CCC[C@H]1Cn1cc(-c2ccc(F)cn2)cn1 [Example 218]	74
[2H]C1([2H])CC[C@@]([2H])(Cn2ccc(-c3ccc(F)cc3)n2)N1C(=O)c1c(-c2ncccn2)nn2ccccc12 [Example 178]	95
O=C(c1c(-c2ccccc2F)nn2c1COCC2)N1CC[C@H]1Cn1ccc(-c2ccc(F)cn2)n1 [Example 104]	14

---

// reported inhibition at 1 µM for each item listed
# studySystem: Orexin type 1 (OX1R) receptor (Homo sapiens, UniProt O43613)
# Construct: expressed in transfected cells; host or cells: CHO cells (G418 selection)
# assayInfo: In vitro orexin antagonism assay: intracellular calcium measurement (FLIPR), orexin-A 3 nM as agonist
# Assay type: cell-based
# conditionSet: read-out: OX1R, % Inh. @ 1 uM
measurementLabel: inhibition at 1 µM (%)

1) O=C(c1nn2cccnc2c1-c1ccccn1)N1CCC[C@H]1COc1ccc(C(F)(F)F)cn1 91
2) O=C(c1c(-c2ccccc2)nn2ccccc12)N1CCC[C@H]1CNc1ccc(F)cn1 32.5
3) O=C(c1nn2c(c1-c1ccccn1)COCC2)N1CCC[C@H]1Cn1ccc(-c2ccccn2)n1 100
4) O=C(c1c(-c2ccccc2F)nn2c1COCC2)N1[C@H](Cn2ccc(-c3ccc(F)cc3)n2)C[C@@H]2C[C@@H]21 44
5) O=C(c1nc2ccccn2c1-c1ccccc1)N1[C@@H]2CC[C@@H](C2)[C@H]1COc1ccc(C(F)(F)F)cn1 93
6) O=C(c1nn2cccnc2c1-c1ccccn1)N1CCC[C@H]1Cc1nc(-c2ccccn2)no1 82
7) O=C(c1c(-c2ccccc2)nc2cc(C(F)(F)F)ccn12)N1CCC[C@H]1Cn1cc(-c2ccc(F)cn2)cn1 58

---

# studySystem: Orexin type 1 (OX1R) receptor (Homo sapiens)
# Construct: expressed in transfected cells; host or cells: CHO cells (G418 selection)
# Sequence (O43613 1-425): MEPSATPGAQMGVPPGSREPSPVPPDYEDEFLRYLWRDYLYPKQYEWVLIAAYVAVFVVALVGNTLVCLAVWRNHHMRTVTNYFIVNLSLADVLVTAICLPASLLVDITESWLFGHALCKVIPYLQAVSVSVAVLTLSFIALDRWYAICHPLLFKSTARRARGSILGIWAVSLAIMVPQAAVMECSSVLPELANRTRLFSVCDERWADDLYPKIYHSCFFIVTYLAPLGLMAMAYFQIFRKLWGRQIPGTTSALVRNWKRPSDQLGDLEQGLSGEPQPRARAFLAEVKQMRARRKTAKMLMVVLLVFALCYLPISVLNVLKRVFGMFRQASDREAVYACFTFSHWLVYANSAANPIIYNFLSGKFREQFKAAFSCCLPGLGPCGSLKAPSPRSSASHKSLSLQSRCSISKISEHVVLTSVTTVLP
# assayInfo: In vitro orexin antagonism assay: intracellular calcium measurement (FLIPR), orexin-A 3 nM as agonist
# Assay type: cell-based
# conditionSet: read-out: OX1R, % Inh. @ 1 uM
# Protocol: In Vitro Orexin Antagonism Measurement Assay: Intracellular Calcium Measurements: […] Within the Fluorescent Imaging Plate Reader (FLIPR Tetra, Molecular Devices), antagonists are added to the plate in a volume of 10 μL/well, incubated for 120 min and finally 10 μL/well of agonist is added. […] The calculated IC50values may fluctuate depending on the daily cellular assay performance. […]
measurementLabel: inhibition at 1 µM (%)

molecule	measurementLabel	unitOfMeasurement	measValue
O=C(c1nn2c(c1-c1ccccn1)OCCC2)N1CCC[C@H]1COc1ccc(C(F)(F)F)cn1	inhibition at 1 µM	%	100
O=C(c1c(-c2ccccc2)nc2ccc(F)cn12)N1CCC[C@H]1COc1ccc(C(F)(F)F)cn1	inhibition at 1 µM	%	88.1
C[C@@]1(COc2ccc(C(F)(F)F)cn2)CCCN1C(=O)c1nn2c(c1-c1ccccc1)COCC2	inhibition at 1 µM	%	96
C[C@@]1(COc2cnc(C(F)(F)F)cn2)CCCN1C(=O)c1nn2c(c1-c1ccccc1)OCCC2	inhibition at 1 µM	%	50
O=C(c1nn2c(c1-c1ccccc1)OCCC2)N1CCC[C@H]1Cn1ccc(-c2ccccc2)n1	inhibition at 1 µM	%	100
O=C(c1nn2c(c1-c1ccccn1)OCCC2)N1CCC[C@H]1Cn1ccc(-c2ccccn2)n1	inhibition at 1 µM	%	100
O=C(c1c(-c2ccccc2)nn2c1COCC2)N1CCC[C@H]1Cc1nc(-c2ccc(F)cn2)no1	inhibition at 1 µM	%	10
O=C(c1c(-c2ccccn2)nn2ccccc12)N1CCC[C@H]1Cc1nc(-c2ccccn2)no1	inhibition at 1 µM	%	97
O=C(c1nc2n(c1-c1ccccn1)CCOC2)N1CCC[C@H]1Cn1ccc(-c2ccc(F)cn2)n1	inhibition at 1 µM	%	70
O=C(c1c(-c2ccccc2)nn2c1COCC2)N1CCC[C@H]1Cn1cc(-c2ccccc2)cn1	inhibition at 1 µM	%	56
C[C@@]1(COc2ccc(C(F)(F)F)cn2)CCCN1C(=O)c1c(-c2ncccn2)nn2ccccc12	inhibition at 1 µM	%	98
O=C(c1nn2cccnc2c1-c1ccccn1)N1C(Cn2ccc(-c3ccc(F)cn3)n2)C[C@@H]2C[C@@H]21 (some centres unmarked)	inhibition at 1 µM	%	100
O=C(c1nc2ccccn2c1-c1ccccc1)N1CCC[C@H]1Cc1nc(-c2ccccn2)no1	inhibition at 1 µM	%	100
O=C(c1nn2ccccc2c1-c1ccccn1)N1CCC[C@H]1COc1ccc(C(F)(F)F)cn1	inhibition at 1 µM	%	100
O=C(c1c(-c2ccccc2F)nn2c1COCC2)N1CCC[C@H]1Cn1ccc(-c2ccccn2)n1	inhibition at 1 µM	%	60
O=C(c1c(-c2ccccc2)nc2ccc(F)cn12)N1CCC[C@H]1Cn1cc(-c2ccccc2)cn1	inhibition at 1 µM	%	93
O=C(c1c(-c2ccccc2)nc2cnccn12)N1CCC[C@H]1CNc1ccc(C(F)(F)F)cn1	inhibition at 1 µM	%	53.7
O=C(c1nc2ccccn2c1-c1ccccc1)N1CCC[C@H]1COc1ccc(C(F)(F)F)cn1	inhibition at 1 µM	%	100
O=C(c1nn2ccccc2c1-c1ccccn1)N1CCC[C@H]1Cn1ccc(-c2ccc(F)cn2)n1	inhibition at 1 µM	%	96
O=C(c1nn2c(c1-c1ccccc1)COCC2)N1CCC[C@H]1Cn1ccc(-c2ccccc2)n1	inhibition at 1 µM	%	100
O=C(c1nn2c(c1-c1ccccc1)COCC2)N1CCC[C@H]1COc1ccc(C(F)(F)F)cn1	inhibition at 1 µM	%	100
O=C(c1nn2cccnc2c1-c1ccccc1)N1CCC[C@H]1Cn1ccc(-c2ccccc2)n1	inhibition at 1 µM	%	99
O=C(c1c(-c2ccccc2)nc2cc(C(F)(F)F)ccn12)N1[C@H](Cn2ccc(-c3ccc(F)cc3)n2)C[C@@H]2C[C@@H]21	inhibition at 1 µM	%	48
O=C(c1c(-c2ccccc2)nn2c1COCC2)N1CCC[C@H]1Cn1ccc(-c2ccccn2)n1	inhibition at 1 µM	%	46
C[C@@]1(COc2ccc(C(F)(F)F)cn2)CCCN1C(=O)c1c(-c2ccccc2)nn2ccccc12	inhibition at 1 µM	%	99
O=C(c1c(-c2ccccc2)nc2ccccn12)N1CCCC[C@H]1CNc1ccc(C(F)(F)F)cn1	inhibition at 1 µM	%	99.5

---

// reported inhibition at 1 µM for each item listed
# studySystem: human orexin-2 receptor (OX2R) (Homo sapiens)
# Construct: expressed in transfected cells; host or cells: CHO cells (G418 selection)
# assayInfo: In vitro orexin antagonism assay: intracellular calcium measurement (FLIPR), orexin-A 3 nM as agonist
# Format: cell-based
# conditionSet: read-out: OX2R, % Inh. @ 1 uM
# Protocol: Antagonistic activities on both orexin receptors have been measured for each example compound using the following procedure: In Vitro Orexin Antagonism Measurement Assay: Intracellular Calcium Measurements: […] Within the Fluorescent Imaging Plate Reader (FLIPR Tetra, Molecular Devices), antagonists are added to the plate in a volume of 10 μL/well, incubated for 120 min and finally 10 μL/well of agonist is added. […] The calculated IC50values may fluctuate depending on the daily cellular assay performance. […]
measurementLabel: inhibition at 1 µM (%)

1) C[C@@]1(COc2ccc(C(F)(F)F)cn2)CCCN1C(=O)c1c(-c2ccccn2)nn2ccccc12 25
2) O=C(c1nc2ccccn2c1-c1ccccn1)N1CCC[C@H]1Cc1nc(-c2ccc(F)cn2)no1 12
3) O=C(c1c(-c2ccccc2)nn2c1COCC2)N1CCC[C@H]1Cn1cc(-c2ccccc2)cn1 42
4) O=C(c1nn2ccccc2c1-c1ccccn1)N1CCC[C@H]1Cn1ccc(-c2ccccn2)n1 56
5) O=C(c1c(-c2ncccn2)nn2ccccc12)N1CCC[C@H]1Cc1nc(-c2ccccn2)no1 25
6) C[C@@]1(COc2cnc(C(F)(F)F)cn2)CCCN1C(=O)c1nc2ccccn2c1-c1ccccc1 11
7) O=C(c1c(-c2ccccc2)nc2ccc(F)cn12)N1CCC[C@H]1Cc1nc(-c2ccc(F)cn2)no1 45
8) O=C(c1c(-c2ccc(F)cc2)nn2ccccc12)N1CCC[C@H]1Cn1ccc(-c2ccccc2)n1 72.3
9) O=C(c1c(-c2ccccc2)nc2cnccn12)N1CCC[C@H]1COc1ccc(C(F)(F)F)nc1 7.9
10) O=C(c1nn2ccccc2c1-c1ccccn1)N1CCC[C@H]1Cn1ccc(-c2ccc(F)cn2)n1 59
11) O=C(c1c(-c2ccccc2)nc2ccc(F)cn12)N1[C@H](Cn2ccc(-c3ccc(F)cc3)n2)C[C@@H]2C[C@@H]21 37
12) O=C(c1c(-c2ccccc2F)nn2c1COCC2)N1[C@H](Cn2ccc(-c3ccc(F)cc3)n2)C[C@@H]2C[C@@H]21 22
13) O=C(c1nn2c(c1-c1ccccn1)OCCC2)N1CCC[C@H]1COc1ccc(C(F)(F)F)cn1 19
14) O=C(c1nc2n(c1-c1ccccn1)CCOC2)N1CCC[C@H]1Cn1ccc(-c2ccccn2)n1 12
15) O=C(c1c(-c2ccccc2)nc2ccc(F)cn12)N1CCC[C@H]1COc1ccc(C(F)(F)F)cn1 46.5
16) O=C(c1c(-c2ccccc2)nc2cc(F)ccn12)N1CCC[C@H]1COc1ccc(C(F)(F)F)cn1 43.3
17) C[C@@]1(Cn2ccc(-c3ccccn3)n2)CCCN1C(=O)c1nc2ccccn2c1-c1ccccc1 13
18) O=C(c1c(-c2ccc(F)cc2)nn2ccccc12)N1CCC[C@H]1CNc1ccc(C(F)(F)F)cn1 39.4
19) O=C(c1c(-c2ccccn2)nn2ccccc12)N1CCC[C@H]1Cn1ccc(-c2ccccc2)n1 98
20) O=C(c1nn2ccccc2c1-c1ccccn1)N1CCC[C@H]1Cn1cc(-c2ccc(F)cn2)cn1 67
21) O=C(c1c(-c2ccccc2F)nn2ccccc12)N1CC[C@H]1Cn1ccc(-c2ccc(F)cn2)n1 43
